biological target: human NaV1.8 (hNaV1.8) ion channel (Homo sapiens); construct: expressed in transfected cells; assay: Inhibition of Human NaV1.8 stably expressed in SH-SY-5Y cells (membrane potential dye fluorescence assay); assay type: cell-based; conditions: SH-SY-5Y cells stably expressing hNaV1.8; FLIPR membrane potential dye; 10 μM pyrethroid, 250 nM TTX; test range 100 μM-0.05 μM; read-out: hNav1.8 IC50
Sequence (Q9Y5Y9 whole entry): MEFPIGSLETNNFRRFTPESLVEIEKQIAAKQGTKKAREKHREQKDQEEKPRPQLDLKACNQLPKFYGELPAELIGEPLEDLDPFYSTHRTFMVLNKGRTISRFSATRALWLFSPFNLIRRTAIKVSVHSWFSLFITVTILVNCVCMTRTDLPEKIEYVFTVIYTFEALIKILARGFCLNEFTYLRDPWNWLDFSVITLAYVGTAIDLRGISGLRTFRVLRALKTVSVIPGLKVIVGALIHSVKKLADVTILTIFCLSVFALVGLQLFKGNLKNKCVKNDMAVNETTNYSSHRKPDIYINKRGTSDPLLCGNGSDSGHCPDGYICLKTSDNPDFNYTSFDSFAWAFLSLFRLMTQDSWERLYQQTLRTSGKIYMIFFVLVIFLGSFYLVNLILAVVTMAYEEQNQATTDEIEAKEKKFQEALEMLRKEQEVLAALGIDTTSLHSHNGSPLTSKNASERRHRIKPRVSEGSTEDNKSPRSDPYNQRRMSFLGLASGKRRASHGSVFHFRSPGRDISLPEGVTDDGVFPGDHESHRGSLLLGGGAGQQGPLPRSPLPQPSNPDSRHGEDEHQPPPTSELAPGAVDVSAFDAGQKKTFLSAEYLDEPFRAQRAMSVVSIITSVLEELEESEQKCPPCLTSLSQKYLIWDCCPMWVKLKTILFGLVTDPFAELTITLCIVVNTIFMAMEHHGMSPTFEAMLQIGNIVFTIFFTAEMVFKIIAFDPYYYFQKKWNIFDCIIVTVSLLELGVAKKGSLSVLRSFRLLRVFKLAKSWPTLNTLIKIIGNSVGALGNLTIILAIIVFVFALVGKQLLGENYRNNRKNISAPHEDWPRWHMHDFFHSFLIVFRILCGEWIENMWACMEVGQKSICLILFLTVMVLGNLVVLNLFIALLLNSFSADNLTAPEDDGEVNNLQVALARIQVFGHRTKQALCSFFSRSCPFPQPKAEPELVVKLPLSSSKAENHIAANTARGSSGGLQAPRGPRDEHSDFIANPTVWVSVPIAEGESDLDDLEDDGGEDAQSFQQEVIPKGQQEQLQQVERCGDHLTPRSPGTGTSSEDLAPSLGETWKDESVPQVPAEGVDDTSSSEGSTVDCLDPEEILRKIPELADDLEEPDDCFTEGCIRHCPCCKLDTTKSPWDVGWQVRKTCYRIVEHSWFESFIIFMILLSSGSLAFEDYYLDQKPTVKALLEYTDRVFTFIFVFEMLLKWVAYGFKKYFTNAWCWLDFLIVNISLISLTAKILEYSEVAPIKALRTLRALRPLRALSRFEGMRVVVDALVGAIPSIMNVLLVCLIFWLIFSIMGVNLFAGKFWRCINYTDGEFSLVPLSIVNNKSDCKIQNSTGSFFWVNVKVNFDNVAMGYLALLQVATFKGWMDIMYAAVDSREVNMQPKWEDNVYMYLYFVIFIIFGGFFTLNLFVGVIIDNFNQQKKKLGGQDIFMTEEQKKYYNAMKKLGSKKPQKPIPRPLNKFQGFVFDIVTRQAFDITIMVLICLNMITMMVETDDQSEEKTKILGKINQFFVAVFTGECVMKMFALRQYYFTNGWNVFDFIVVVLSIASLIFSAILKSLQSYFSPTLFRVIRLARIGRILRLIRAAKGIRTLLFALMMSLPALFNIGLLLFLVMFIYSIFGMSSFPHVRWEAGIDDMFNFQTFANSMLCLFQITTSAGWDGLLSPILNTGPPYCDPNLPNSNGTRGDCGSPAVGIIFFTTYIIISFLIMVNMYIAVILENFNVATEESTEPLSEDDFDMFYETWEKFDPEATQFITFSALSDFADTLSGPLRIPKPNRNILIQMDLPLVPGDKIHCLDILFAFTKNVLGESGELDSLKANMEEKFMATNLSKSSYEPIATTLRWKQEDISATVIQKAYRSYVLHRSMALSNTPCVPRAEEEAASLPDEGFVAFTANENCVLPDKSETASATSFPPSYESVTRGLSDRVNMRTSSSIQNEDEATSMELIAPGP
pIC50: −log10 of the molar value.
// reported pIC50 per item

molecule: CCCCOc1cccc(NC(=O)N2CC(N(C)C(C)c3ccc(F)cc3)C2)c1 (stereo not drawn)
measured-target: human NaV1.8 (hNaV1.8) ion channel (Homo sapiens)
pIC50: 5.84
//
molecule: COc1ccc(C(C)NC2CN(C(=O)Nc3ccc(C(F)(F)F)cc3)C2)cc1 (stereo not drawn)
measured-target: human NaV1.8 (hNaV1.8) ion channel (Homo sapiens)
pIC50: 5.61
//
molecule: Cc1ccccc1C(C)N(C)C1CN(C(=O)Nc2cccc(Oc3ccccc3)c2)C1 (stereo not drawn)
measured-target: human NaV1.8 (hNaV1.8) ion channel (Homo sapiens)
pIC50: 6.29
//
molecule: O=C(Nc1ccc(Oc2cccc(F)c2)cc1)N1CC(NC2CCc3cc(F)ccc32)C1 (stereo not drawn)
measured-target: human NaV1.8 (hNaV1.8) ion channel (Homo sapiens)
pIC50: 6.51
//
molecule: CC(c1ccc(F)cc1)N(C)C1CN(C(=O)Nc2ccc(OC(F)(F)F)cc2)C1 (stereo not drawn)
measured-target: human NaV1.8 (hNaV1.8) ion channel (Homo sapiens)
pIC50: 5.50
//
molecule: CC(NC1CN(C(=O)Nc2ccc(Oc3ccc(F)cc3)cc2)C1)c1ccc(C#N)cc1 (stereo not drawn)
measured-target: human NaV1.8 (hNaV1.8) ion channel (Homo sapiens)
pIC50: 5.68
//
molecule: CC(c1ccc(F)cc1)N(C)C1CN(C(=O)Nc2cccc(C(F)(F)F)c2F)C1 (stereo not drawn)
measured-target: human NaV1.8 (hNaV1.8) ion channel (Homo sapiens)
pIC50: 5.24
//
molecule: CC(NC1CN(C(=O)Nc2cccc(Oc3ccccc3)c2)C1)c1ccc(F)cc1Cl (stereo not drawn)
measured-target: human NaV1.8 (hNaV1.8) ion channel (Homo sapiens)
pIC50: 5.95
//
molecule: O=C(Nc1ccc(OCc2ccccc2)cc1)N1CC(NCc2c(F)cccc2F)C1
measured-target: human NaV1.8 (hNaV1.8) ion channel (Homo sapiens)
pIC50: 6.06
//
molecule: CCCCOc1ccc(NC(=O)N2CC(NC(C)c3ccccc3C)C2)cc1 (stereo not drawn)
measured-target: human NaV1.8 (hNaV1.8) ion channel (Homo sapiens)
pIC50: 5.85
//
molecule: CC1Cc2ccccc2C1NC1CN(C(=O)Nc2ccc(Oc3ccccc3)cc2)C1 (stereo not drawn)
measured-target: human NaV1.8 (hNaV1.8) ion channel (Homo sapiens)
pIC50: 6.08
//
molecule: CC1(NC2CCc3cc(F)ccc32)CN(C(=O)Nc2ccc(Oc3ccc(F)cc3)cc2)C1 (stereo not drawn)
measured-target: human NaV1.8 (hNaV1.8) ion channel (Homo sapiens)
pIC50: 6.25
//
molecule: CCCCOc1ccc(NC(=O)N2CC(NC(C)c3ccc(F)cc3)C2)cc1 (stereo not drawn)
measured-target: human NaV1.8 (hNaV1.8) ion channel (Homo sapiens)
pIC50: 5.64
//
molecule: CC(NC1CN(C(=O)Nc2cccc(C(F)(F)F)c2)C1)c1ccc(F)cc1 (stereo not drawn)
measured-target: human NaV1.8 (hNaV1.8) ion channel (Homo sapiens)
pIC50: 5.59
//
molecule: CC(c1ccc(F)cc1Cl)N(C)C1CN(C(=O)Nc2ccc(Oc3ccccc3)cc2)C1 (stereo not drawn)
measured-target: human NaV1.8 (hNaV1.8) ion channel (Homo sapiens)
pIC50: 6.24
//
molecule: CN(C1CN(C(=O)Nc2ccc(C(F)(F)F)cc2)C1)C1CCc2cc(F)ccc21 (stereo not drawn)
measured-target: human NaV1.8 (hNaV1.8) ion channel (Homo sapiens)
pIC50: 5.69
//
molecule: O=C(Nc1cccc(C(F)(F)F)c1)N1CC(NC2CCc3cc(F)ccc32)C1 (stereo not drawn)
measured-target: human NaV1.8 (hNaV1.8) ion channel (Homo sapiens)
pIC50: 5.57
//
molecule: CCCCOc1cccc(NC(=O)N2CC(NC(C)c3ccc(F)cc3)C2)c1 (stereo not drawn)
measured-target: human NaV1.8 (hNaV1.8) ion channel (Homo sapiens)
pIC50: 5.88
